# pKd values compiled below
Biological target: T1, c-Src SH2 domain (UniProt P12931-1 151-248, biotin (biotinylated SH2 domain of the selection))
T1 construct: SH2 domain of c-Src kinase; source: purified
Assay: fluorescence polarisation; competition mode; unlabelled phosphopeptide against 30 nM FITC-Ahx-GDG-pY-EEISPLLL-NH2 and 122.745 nM c-Src SH2 (123.745 to 125.745 in three rows; Table S3)
Settings: both partners purified
Non-standard residues stand in square brackets, D forms with d. pY = N[C@@H](Cc1ccc(OP(=O)(O)O)cc1)C(=O)O
Hey, just a heads up that pKd is the negative log base 10 of the concentration in molar.

Check out these entries, answers already filled in.
INSERT INTO results (binder, property_measured, val) VALUES
  ('Ac-QPSTTE[pY]SEIKTG-NH2 (flank added to the 11-residue stretch (surmised: last residue of the library''s constant GQSGQ); SIGLEC5, human, around pY544; flank added to the 11-residue stretch (surmised: first residue of the library''s constant GGQSG); source: synthetic peptide (SynPeptide, China)) [SIGLEC5 pY544]', 'pKd', 6.55),
  ('Ac-QDDQEV[pY]DDVAEG-NH2 (flank added to the 11-residue stretch (surmised: last residue of the library''s constant GQSGQ); SLAP-130, human, around pY595; flank added to the 11-residue stretch (surmised: first residue of the library''s constant GGQSG); also called SLAP-130 Y595; source: synthetic peptide (SynPeptide, China)) [SLAP-130 pY595]', 'pKd', 6.72),
  ('Ac-QKEAHH[pY]VNWRTG-NH2 (source: synthetic peptide (SynPeptide, China)) [Syn-G2-1 (synthetic)]', 'pKd', 5.02);

// sample Ac-QHKEDV[pY]ENLHTG-NH2 (flank added to the 11-residue stretch (surmised: last residue of the library's constant GQSGQ); PTPN6 (SHP1), human, around pY564; flank added to the 11-residue stretch (surmised: first residue of the library's constant GGQSG); also called SHP1 pY564; source: synthetic peptide (SynPeptide, China)) [PTPN6 pY564] , its pKd was 6.04

These measurements were taken from paper doi:10.1101/2024.12.23.630085.
